The values you see were collected from patent US11485736B2.

Field: solubility at 24 h. Provide a value for each of the compounds that follow.
assay: ADME solubility determination at pH 2.0 and pH 7.4; type: physicochemical; conditions: aqueous buffer, thermodynamic from solid; PBS pH 7.4, shaken at 25° C. for 24 hours, LC-MS/MS; read-out: Solubility at pH 7.4

[Q] I'd like to know its solubility at 24 h. The compound in question is CCn1cc(C(F)(F)F)nc1-c1ccc(Cn2ncc3cnc(-c4c(OC)ncnc4C4CC4)nc32)cc1OC [Example 128]
[A] > 10 µM

[Q] I'd like to know its solubility at 24 h. The compound in question is COc1ncnc(C(C)(C)C)c1-c1ncc2cnn(Cc3ccc(-c4nc(C(F)(F)F)cn4C)cc3)c2n1 [Example 109]
[A] < 10 µM

[Q] I'd like to know its solubility at 24 h. The compound in question is COc1nc(C)nc(C2CC2)c1-c1ncc2cnn(Cc3ccc(-c4nc(C(F)(F)F)cn4C)cc3)c2n1 [Example 133]
[A] > 10 µM

[Q] I'd like to know its solubility at 24 h. The compound in question is Cn1cc(C(F)(F)F)nc1-c1ccc(Cn2ncc3cnc(-c4c(OS(=O)(=O)C(F)(F)F)ncnc4C4CC4)nc32)cc1 [Example 160]
[A] < 10 µM

[Q] I'd like to know its solubility at 24 h. The compound in question is COc1cc(Cn2ncc3cnc(-c4c(OC)ncnc4C4CC4)nc32)ccc1-c1cn(C)c(C(F)(F)F)n1 [Example 35]
[A] < 10 µM

[Q] I'd like to know its solubility at 24 h. The compound in question is COc1ncnc(C2CC2)c1-c1ncc2cnn(Cc3ccc(-c4nc(C(F)(F)F)cn4C(C)C)c(F)c3)c2n1 [Example 19]
[A] > 10 µM

[Q] I'd like to know its solubility at 24 h. The compound in question is CCn1cc(C(F)(F)F)nc1-c1ccc([C@@H](C)n2ncc3cnc(-c4c(OC)ncnc4OC)nc32)cc1 [Example 89]
[A] > 10 µM

[Q] I'd like to know its solubility at 24 h. The compound in question is CCn1c(-c2ccc(Cn3nc(OC)c4cnc(-c5c(OC)ncnc5C5CC5)nc43)cc2)nc(C(F)(F)F)c1Br [Example 189]
[A] < 10 µM

[Q] I'd like to know its solubility at 24 h. The compound in question is COc1ncnc(C2CC2)c1-c1ncc2ccn(Cc3ccc(-c4nc(C(F)(F)F)cn4C)cc3)c2n1 [Example 201]
[A] < 10 µM

[Q] I'd like to know its solubility at 24 h. The compound in question is COCCOc1ncnc(C)c1-c1ncc2cnn(Cc3ccc(-n4nc(C(F)(F)F)cc4C)cc3)c2n1 [Example 47]
[A] > 10 µM

[Q] I'd like to know its solubility at 24 h. The compound in question is CCn1cc(C(F)(F)F)nc1-c1ccc(Cn2nc(OC)c3cnc(-c4c(OC)ncnc4C4CC4)nc32)cc1 [Example 176]
[A] < 10 µM

[Q] I'd like to know its solubility at 24 h. The compound in question is COc1ncnc(C2CC2)c1-c1ncc2cnn(Cc3ccc(-n4nc(C(F)F)cc4C)cc3)c2n1 [Example 50]
[A] < 10 µM

[Q] I'd like to know its solubility at 24 h. The compound in question is COc1ncnc(C2CC2)c1-c1ncc2cnn(Cc3ccc(-n4nc(C(F)(F)F)cc4SC)cc3)c2n1 [Example 38]
[A] < 10 µM

[Q] I'd like to know its solubility at 24 h. The compound in question is CCn1cc(C(F)(F)F)nc1-c1ccc(Cn2ncc3cnc(-c4c(OC)ncnc4OC4CC4)nc32)cc1 [Example 114]
[A] > 10 µM

[Q] I'd like to know its solubility at 24 h. The compound in question is CCn1cc(C(F)(F)F)nc1-c1ccc(Cn2ncc3cnc(-c4c(C5CC5)cnn4CC)nc32)cc1 [Example 68]
[A] < 10 µM
